Quick reference: IC50 of the listed items.
# system_under_test: hTRPV3 (Homo sapiens, UniProt Q8NET8)
# Construct: The commercially available plasmid with the full-length cDNA of hTRPV3 (791 aa) (NM_001258205.2)
# Sequence (Q8NET8 1-791 isoform Q8NET8-2): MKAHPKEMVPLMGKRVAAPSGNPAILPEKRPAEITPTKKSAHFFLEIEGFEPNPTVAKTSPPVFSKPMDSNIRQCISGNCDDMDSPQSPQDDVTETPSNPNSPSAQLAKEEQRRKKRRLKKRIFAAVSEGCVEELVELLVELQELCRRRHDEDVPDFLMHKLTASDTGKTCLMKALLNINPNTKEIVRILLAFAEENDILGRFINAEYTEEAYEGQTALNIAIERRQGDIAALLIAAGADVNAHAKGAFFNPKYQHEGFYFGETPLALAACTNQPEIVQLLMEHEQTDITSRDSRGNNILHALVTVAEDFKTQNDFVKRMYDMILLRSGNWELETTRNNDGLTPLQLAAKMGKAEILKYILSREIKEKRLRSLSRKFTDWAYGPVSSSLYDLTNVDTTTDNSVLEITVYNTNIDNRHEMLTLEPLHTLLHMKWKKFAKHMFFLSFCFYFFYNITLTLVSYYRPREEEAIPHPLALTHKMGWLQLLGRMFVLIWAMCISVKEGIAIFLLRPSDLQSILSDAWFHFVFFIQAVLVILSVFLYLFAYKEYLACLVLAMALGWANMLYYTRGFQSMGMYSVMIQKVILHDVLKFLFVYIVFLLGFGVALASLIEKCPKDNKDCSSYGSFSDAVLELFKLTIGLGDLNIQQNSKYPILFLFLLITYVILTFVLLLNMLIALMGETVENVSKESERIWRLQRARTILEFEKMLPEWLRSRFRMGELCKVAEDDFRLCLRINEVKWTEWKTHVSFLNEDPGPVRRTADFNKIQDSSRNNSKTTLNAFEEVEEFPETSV
# experimental_details: Whole-cell patch-clamp recording of hTRPV3 current in transfected HEK293T cells (2-APB induced)
# condition_context: current induced by 300 μM 2-APB, compounds tested up to 10 μM, room temperature

For orientation, consider the following solved cases.
| compound | IC50 |
| --- | --- |
| COc1ncnc(OC)c1C(=O)Nc1nc2c(s1)C1(CCN(C3CC3)CC1)Oc1cc(C(F)(F)F)ccc1-2 [compound 154] | 100 to 1000 nM |
| COc1ncnc(OC)c1C(=O)Nc1nc2c(s1)C1(CN(C3CC3)C1)Oc1cc(C(F)(F)F)ccc1-2 [compound 149] | < 100 nM |
| CCOC(=O)C1CCC2(CC1)Oc1cc(C(F)(F)F)ccc1-c1nc(NC(=O)c3c(OC)ncnc3OC)sc12 (centres unmarked) [compound 32] | < 100 nM |
| COc1ncnc(OC)c1C(=O)Nc1nc2c(s1)C1(CCOCC1)Oc1cc(C(F)(F)F)ccc1-2 [compound 59] | 100 to 1000 nM |
| COc1ncnc(OC)c1C(=O)Nc1nc2c(s1)C1(CCC(F)(F)CC1)Oc1cc(C(F)(F)F)ccc1-2 [compound 40] | 100 to 1000 nM |
| CCC1(CC)Oc2cc(C(F)(F)F)ccc2-c2nc(NC(=O)c3c[nH]nc3OC)sc21 [compound 94] | ≥ 10000 nM |
| CCOc1ncnc(OCC)c1C(=O)Nc1nc2c(s1)C(CC)(CC)Oc1cc(C(F)(F)F)ccc1-2 [compound 47] | 100 to 1000 nM |
| CCOC(=O)N1CC2(C1)Oc1cc(C(F)(F)F)ccc1-c1nc(NC(=O)c3c(OC)ncnc3OC)sc12 [compound 78] | 100 to 1000 nM |

The reported value for COc1ncnc(OC)c1C(=O)Nc1nc2c(s1)C1(CCC(C(N)=O)CC1)Oc1cc(C(F)(F)F)ccc1-2 (centres unmarked) [compound 102] in terms of IC50 is ≥ 10000 nM

The reported value for COc1ncnc(OC)c1C(=O)Nc1nc2c(s1)C1(CCC(OCc3ccccc3)CC1)Oc1cc(C(F)(F)F)ccc1-2 (centres unmarked) [compound 30] in terms of IC50 is 100 to 1000 nM

The reported value for COc1ncnc(OC)c1C(=O)Nc1nc2c(s1)C1(CCN(C(C)C)CC1)Oc1cc(C(F)(F)F)ccc1-2 [compound 152] in terms of IC50 is 100 to 1000 nM

---

# system_under_test: hTRPV3 (Homo sapiens)
# Construct: The commercially available plasmid with the full-length cDNA of hTRPV3 (791 aa) (NM_001258205.2)
# experimental_details: Whole-cell patch-clamp recording of hTRPV3 current in transfected HEK293T cells (2-APB induced)
# condition_context: current induced by 300 μM 2-APB, compounds tested up to 10 μM, room temperature
Quick reference: IC50 of the listed items.

The reported value for CCC1(CC)Oc2cc(C(F)(F)F)ccc2-c2nc(NC(=O)c3c(O)ncnc3OC)sc21 in terms of IC50 is ≥ 10 µM

The reported value for CCC1(CC)Oc2cc(C3CC3)ccc2-c2nc(NC(=O)c3c(OC)ncnc3OC)sc21 in terms of IC50 is 0.1 to 1 µM

The reported value for COc1ncnc(OC)c1C(=O)Nc1nc2c(s1)COc1cc(OC(=O)C(C)(C)C)ccc1-2 in terms of IC50 is 1 to 10 µM

---

# system_under_test: hTRPV3 (Homo sapiens)
# Construct: The commercially available plasmid with the full-length cDNA of hTRPV3 (791 aa) (NM_001258205.2)
# Sequence (Q8NET8 1-791 isoform Q8NET8-2): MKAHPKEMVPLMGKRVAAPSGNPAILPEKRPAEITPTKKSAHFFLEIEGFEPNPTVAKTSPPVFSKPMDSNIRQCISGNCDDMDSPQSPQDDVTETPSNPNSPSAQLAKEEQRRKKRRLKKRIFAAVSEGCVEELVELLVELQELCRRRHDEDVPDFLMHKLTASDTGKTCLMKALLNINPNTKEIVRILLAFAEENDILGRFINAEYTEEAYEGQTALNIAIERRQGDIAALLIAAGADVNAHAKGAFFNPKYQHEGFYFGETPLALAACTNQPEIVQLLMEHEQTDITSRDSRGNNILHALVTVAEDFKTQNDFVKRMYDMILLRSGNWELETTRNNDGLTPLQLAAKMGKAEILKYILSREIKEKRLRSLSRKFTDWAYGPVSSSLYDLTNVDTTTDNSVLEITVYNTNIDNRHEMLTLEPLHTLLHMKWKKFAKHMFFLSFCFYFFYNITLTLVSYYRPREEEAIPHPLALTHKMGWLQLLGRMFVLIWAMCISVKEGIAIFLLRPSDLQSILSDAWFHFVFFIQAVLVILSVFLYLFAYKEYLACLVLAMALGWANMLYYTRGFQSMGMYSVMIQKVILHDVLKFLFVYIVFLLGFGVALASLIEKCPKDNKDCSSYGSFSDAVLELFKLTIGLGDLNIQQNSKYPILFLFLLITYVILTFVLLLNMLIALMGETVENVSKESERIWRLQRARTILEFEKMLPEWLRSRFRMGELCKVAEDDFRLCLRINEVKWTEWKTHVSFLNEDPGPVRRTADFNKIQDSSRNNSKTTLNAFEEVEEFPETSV
# experimental_details: Whole-cell patch-clamp recording of hTRPV3 current in transfected HEK293T cells (2-APB induced)
# condition_context: current induced by 300 μM 2-APB, compounds tested up to 10 μM, room temperature
value_kind: IC50

For orientation, consider the following solved cases.
| compound | IC50 |
| --- | --- |
| CCOC(=O)C1CC2(C1)Oc1cc(C(F)(F)F)ccc1-c1nc(NC(=O)c3c(OC)ncnc3OC)sc12 (stereo not drawn) | < 100 nM |
| [2H]C([2H])([2H])Oc1ncnc(OC([2H])([2H])[2H])c1C(=O)Nc1nc2c(s1)C(CC)(CC)Oc1cc(C(F)(F)F)ccc1-2 | 100 to 1000 nM |
| COc1ncnc(OC)c1C(=O)Nc1nc2c(s1)C(CCc1ccccc1)Oc1cc(C(F)(F)F)ccc1-2 (stereo not drawn) | 100 to 1000 nM |
| COc1ncnc(OC)c1C(=O)Nc1nc2c(s1)CSc1ccc(Cl)cc1-2 | ≥ 10000 nM |
| C=CCN1c2cc(C(F)(F)F)ccc2-c2nc(NC(=O)c3c(OC)ncnc3OC)sc2C1(C)C | 100 to 1000 nM |
| CCC1(CC)Oc2cc(C#N)ccc2-c2nc(NC(=O)c3c(OC)ncnc3OC)sc21 | 100 to 1000 nM |
| COc1ncnc(OC)c1C(=O)Nc1nc2c(s1)C1(CCCCC1)Oc1cc(C(F)(F)F)ccc1-2 | < 100 nM |
| COc1ccc2c(c1)OCc1sc(NC(=O)c3c(OC)ncnc3OC)nc1-2 | ≥ 10000 nM |

The reported value for CCC1(CC)Oc2cc(C(F)(F)F)ccc2-c2nc(NC(=O)c3c(OC)nc(C)nc3OC)sc21 in terms of IC50 is 1000 to 10000 nM
